target: CYP2A6 (Homo sapiens, UniProt P11509); test: in vitro; details: recombinant CYP2A6, probe coumarin
property: kinact (s⁻¹)
Return type: number; implicit unit s⁻¹.

O=C/C(Br)=C/c1ccccc1 [α-bromo-CA, α-bromocinnamaldehyde]	0.000283
O=CC=Cc1ccc([N+](=O)[O-])cc1 [4-nitro-CA, 4-nitrocinnamaldehyde]	0.00065
O=CC=Cc1cccc([N+](=O)[O-])c1 [3-nitro-CA, 3-nitrocinnamaldehyde]	0.00138
O=CC=Cc1ccccc1[N+](=O)[O-] [2-nitro-CA, 2-nitrocinnamaldehyde]	0.00372
O=CC=Cc1ccccc1C(F)(F)F [o-trifluoromethyl-CA, 2-trifluoromethylcinnamaldehyde]	0.00237
CC(C=O)=Cc1ccccc1[N+](=O)[O-] [o-nitro-α-methyl-CA, 2-nitro-α-methylcinnamaldehyde]	0.00405
O=CC(Cl)=Cc1ccccc1 [α-chloro-CA, α-chlorocinnamaldehyde]	0.0025

Continue with the molecule presented below.
Just so you know, measured kinact for O=C/C=C/c1c(F)cccc1F [2,6-difluoro-CA, 2,6-difluorocinnamaldehyde] came out at 0.00407

====

Here, each record is paired with measured IC50 data.
target: CYP2A6 (Homo sapiens); experiment: biochemical
Please answer in the form of a number followed by its unit of measurement.

Study these solved cases before continuing.
O=C/C=C/c1ccccc1 [t-CA, trans-cinnamaldehyde]	6.9 µM
O=CC=Cc1ccc([N+](=O)[O-])cc1 [4-nitro-CA, 4-nitrocinnamaldehyde]	308 µM

Just so you know, measured IC50 for O=CC=Cc1ccccc1[N+](=O)[O-] [2-nitro-CA, 2-nitrocinnamaldehyde] came out at 15.1 µM

Just so you know, measured IC50 for O=CC=Cc1cccc([N+](=O)[O-])c1 [3-nitro-CA, 3-nitrocinnamaldehyde] came out at 410 µM

Just so you know, measured IC50 for ON=CC=Cc1ccccc1 [Cinnamaldehyde oxime] came out at 8 µM

====

biological target: CYP2A6 (Homo sapiens, UniProt P11509, K28S/Q25K/Q26K/R27T/W24A); assay: biochemical
pKd: −log10 of the molar value.
# pKd >= 5 gives Yes, anything below gives No

Consider the following illustrative entries.
COc1ccccc1C=CC=O [o-methoxycinnamaldehyde, 2-methoxycinnamaldehyde]	Yes
O=CCCc1ccccc1 [hydro-CA, hydrocinnamaldehyde]	No

Identify whether the reported pKd of the following compound is 5 or greater: O=CC=Cc1ccccc1[N+](=O)[O-] [2-nitro-CA, 2-nitrocinnamaldehyde]
No

Identify whether the reported pKd of the following compound is 5 or greater: O=C/C=C/c1ccccc1 [t-CA, trans-cinnamaldehyde]
No

Identify whether the reported pKd of the following compound is 5 or greater: CC(C=O)=Cc1ccccc1 [α-methyl-CA, α-methyl-cinnamaldehyde]
Yes

====

Molecular target: CYP2A6 (Homo sapiens)
Sequence (P11509 1-494): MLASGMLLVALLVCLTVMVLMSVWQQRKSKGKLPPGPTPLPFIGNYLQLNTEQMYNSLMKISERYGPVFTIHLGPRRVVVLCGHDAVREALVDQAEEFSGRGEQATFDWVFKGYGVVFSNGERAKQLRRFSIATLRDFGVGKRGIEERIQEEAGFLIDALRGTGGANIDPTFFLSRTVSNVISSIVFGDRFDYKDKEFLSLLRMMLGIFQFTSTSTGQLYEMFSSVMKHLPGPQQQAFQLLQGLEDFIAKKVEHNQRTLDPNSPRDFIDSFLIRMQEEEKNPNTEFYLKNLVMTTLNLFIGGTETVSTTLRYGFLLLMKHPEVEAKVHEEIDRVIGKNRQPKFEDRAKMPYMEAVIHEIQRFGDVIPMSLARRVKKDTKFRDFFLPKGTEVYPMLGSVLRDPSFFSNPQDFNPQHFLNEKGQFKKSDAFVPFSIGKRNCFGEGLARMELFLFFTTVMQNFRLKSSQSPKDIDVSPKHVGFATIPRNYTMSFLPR
Assay: Time-dependent inhibition screen, recombinant CYP2A6 system, coumarin hydroxylase readout
Details: kinact/kI relative to t-CA
property: Fold difference (with respect to CA)
// response body must contain only the number

O=CC=Cc1ccc([N+](=O)[O-])cc1	0.29

Entry `O=CC=Cc1cccc([N+](=O)[O-])c1` , CYP2A6 (Homo sapiens) data, Fold difference (with respect to CA) value: 0.65

Entry `O=CC=Cc1ccccc1[N+](=O)[O-]` , CYP2A6 (Homo sapiens) data, Fold difference (with respect to CA) value: 11.2

Entry O=CCCc1ccccc1 [hydro-CA, hydrocinnamaldehyde] , CYP2A6 (Homo sapiens) data, Fold difference (with respect to CA) value: 0.96

Entry `O=CC=Cc1ccccc1C(F)(F)F` , CYP2A6 (Homo sapiens) data, Fold difference (with respect to CA) value: 1.9

Entry `CC(C=O)=Cc1ccccc1[N+](=O)[O-]` , CYP2A6 (Homo sapiens) data, Fold difference (with respect to CA) value: 8.7

Entry `O=C/C(Br)=C/c1ccccc1` , CYP2A6 (Homo sapiens) data, Fold difference (with respect to CA) value: 0.32

Entry `O=C/C=C/c1c(F)cccc1F` , CYP2A6 (Homo sapiens) data, Fold difference (with respect to CA) value: 3.6

Entry `O=CC(Cl)=Cc1ccccc1` , CYP2A6 (Homo sapiens) data, Fold difference (with respect to CA) value: 30.7

====

Biological target: CYP2A6 (Homo sapiens, UniProt P11509)
Sequence (P11509 1-494): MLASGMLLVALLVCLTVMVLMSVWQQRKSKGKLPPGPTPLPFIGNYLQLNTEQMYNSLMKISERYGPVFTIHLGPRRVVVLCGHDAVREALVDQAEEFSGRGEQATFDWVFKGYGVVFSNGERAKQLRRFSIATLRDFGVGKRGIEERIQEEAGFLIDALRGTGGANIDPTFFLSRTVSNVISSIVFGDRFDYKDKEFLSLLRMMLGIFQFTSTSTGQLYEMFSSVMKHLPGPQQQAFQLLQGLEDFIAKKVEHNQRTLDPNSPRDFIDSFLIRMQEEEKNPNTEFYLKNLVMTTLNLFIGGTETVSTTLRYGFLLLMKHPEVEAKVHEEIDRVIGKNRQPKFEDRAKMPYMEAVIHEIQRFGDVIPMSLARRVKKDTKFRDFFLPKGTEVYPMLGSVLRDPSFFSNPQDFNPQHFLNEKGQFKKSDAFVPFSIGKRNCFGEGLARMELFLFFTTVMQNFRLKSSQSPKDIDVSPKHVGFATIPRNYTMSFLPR
Experiment: in vitro
Conditions: recombinant enzyme
property: kinact (s⁻¹)
Return type: number; implicit unit s⁻¹.

Just so you know, measured kinact for O=CCCc1ccccc1 [hydro-CA, hydrocinnamaldehyde] came out at 0.00193

====

target: CYP2A6 (Homo sapiens, UniProt P11509); assay: in vitro; conditions: recombinant CYP2A6, probe coumarin
Here, each record is paired with measured kinact/KI data.
Return type: number; implicit unit M⁻¹ s⁻¹.

Study these solved cases before continuing.
CC(C=O)=Cc1ccccc1[N+](=O)[O-] [o-nitro-α-methyl-CA, 2-nitro-α-methylcinnamaldehyde]	207
O=CC=Cc1ccc([N+](=O)[O-])cc1 [4-nitro-CA, 4-nitrocinnamaldehyde]	7
O=CC(Cl)=Cc1ccccc1 [α-chloro-CA, α-chlorocinnamaldehyde]	733

Continue with the molecule presented below.
Just so you know, measured kinact/KI for O=C/C(Br)=C/c1ccccc1 [α-bromo-CA, α-bromocinnamaldehyde] came out at 7.83

====

target: UniProt:P11509; assay: in vitro; conditions: recombinant CYP2A6, probe coumarin
property: kinact/KI (M⁻¹ s⁻¹)
Return type: number; implicit unit M⁻¹ s⁻¹.

Study these solved cases before continuing.
O=CC=Cc1ccccc1C(F)(F)F	45
O=CC=Cc1cccc([N+](=O)[O-])c1	15.5
O=CC=Cc1ccccc1[N+](=O)[O-]	267

Continue with the molecule presented below.
Just so you know, measured kinact/KI for `O=C/C=C/c1c(F)cccc1F` came out at 86.2

====

Here, each record is paired with measured pIC50 data.
target: CYP2A6 (Homo sapiens); test: biochemical
# pIC50: negative log10 of molar concentration; output just the value

Study these solved cases before continuing.
O=CC(Cl)=Cc1ccccc1 [α-chloro-CA, α-chlorocinnamaldehyde]	5.48
O=CCCc1ccccc1 [hydro-CA, hydrocinnamaldehyde]	4.32
O=C/C(Br)=C/c1ccccc1 [α-bromo-CA, α-bromocinnamaldehyde]	5.55
O=C/C=C/c1c(F)cccc1F [2,6-difluoro-CA, 2,6-difluorocinnamaldehyde]	5.41

Just so you know, measured pIC50 for CC(C=O)=Cc1ccccc1 [α-methyl-CA, α-methyl-cinnamaldehyde] came out at 5.28

====

Here, each record is paired with measured log10 of Ki data.
Biological target: CYP2A6 (Homo sapiens)
Sequence (P11509 1-494): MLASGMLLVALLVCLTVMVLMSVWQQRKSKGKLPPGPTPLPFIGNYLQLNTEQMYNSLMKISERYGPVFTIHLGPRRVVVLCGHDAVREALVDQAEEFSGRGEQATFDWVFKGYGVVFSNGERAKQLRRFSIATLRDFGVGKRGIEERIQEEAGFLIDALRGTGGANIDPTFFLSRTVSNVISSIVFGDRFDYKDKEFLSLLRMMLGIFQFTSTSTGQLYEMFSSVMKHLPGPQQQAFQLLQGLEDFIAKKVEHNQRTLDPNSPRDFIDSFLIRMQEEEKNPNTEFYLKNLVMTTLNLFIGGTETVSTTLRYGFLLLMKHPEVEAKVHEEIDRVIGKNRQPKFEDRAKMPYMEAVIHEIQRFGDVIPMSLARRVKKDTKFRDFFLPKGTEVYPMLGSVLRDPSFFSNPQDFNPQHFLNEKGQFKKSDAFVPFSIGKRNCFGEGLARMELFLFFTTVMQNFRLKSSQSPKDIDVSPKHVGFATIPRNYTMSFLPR
Assay: biochemical
Could you please treat all values as log10 of Ki in µM?

Study these solved cases before continuing.
O=CC(Cl)=Cc1ccccc1	0.53
O=CC=Cc1ccccc1C(F)(F)F	1.72
O=CCCc1ccccc1 [hydro-CA, hydrocinnamaldehyde]	1.93
O=C/C=C/c1ccccc1 [t-CA, trans-cinnamaldehyde]	1.43
O=C/C(Br)=C/c1ccccc1	1.56

Continue with the compound presented below.
Just so you know, measured log10 of Ki for `O=CC=Cc1ccc([N+](=O)[O-])cc1` came out at 1.96
